biological target: opioid receptor mu (Homo sapiens, UniProt P35372); construct: expressed in transfected cells; test: GTPγ[35S] binding assay, antagonism of endorphin; type: biochemical; details: read-out: Mu functional (GTPγ[35S] binding Ki)
Sequence (P35372 whole entry): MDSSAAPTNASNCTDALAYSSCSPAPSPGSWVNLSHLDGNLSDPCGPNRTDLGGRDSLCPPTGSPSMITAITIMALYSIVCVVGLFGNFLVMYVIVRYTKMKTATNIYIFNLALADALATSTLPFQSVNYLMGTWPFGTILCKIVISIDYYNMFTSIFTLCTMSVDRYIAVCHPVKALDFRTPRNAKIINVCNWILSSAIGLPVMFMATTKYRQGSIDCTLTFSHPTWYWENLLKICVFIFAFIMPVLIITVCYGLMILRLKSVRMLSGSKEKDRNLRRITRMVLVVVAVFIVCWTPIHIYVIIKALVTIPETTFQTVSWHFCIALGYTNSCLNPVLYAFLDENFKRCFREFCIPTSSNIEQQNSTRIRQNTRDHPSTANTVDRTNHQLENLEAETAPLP
pKi: −log10 of the molar value.
MEASURED METRIC: pKi

Cc1cc(C(N)=O)ccc1-c1ccc(CNCc2ccc3c(c2)CCO3)cc1 [4B-20] = 8.15
Cc1cc(C(N)=O)ccc1-c1ccc(CNC2Cc3ccccc3C2)c(F)c1 [1B-10] = 10.14

[I] Cc1cc(C(N)=O)ccc1-c1ccc(CNCCC2CCOCC2)cc1 [4B-05]
[II] Cc1cc(C(N)=O)ccc1-c1ccc(CNC(C)(C)c2cccc(Cl)c2)cc1 [4B-25]
Input: Of I versus II , which is the one with smaller reported pKi? API: response body contains the label of the selected item.
Output: II

[P] NC(=O)c1cccc(-c2ccc(CNC3CCc4ccccc43)cc2Cl)c1 (stereo not drawn) [4A-11]
[Q] NC(=O)c1cccc(-c2cc(F)c(CNC3Cc4ccccc4C3)c(F)c2)c1 [1A-10]
[R] NC(=O)c1cccc(-c2ccc(CNCCC3CCOCC3)cc2Cl)c1 [4A-08]
Input: Arrange these 3 compounds in increasing order of pKi. List the labels in the requested order.
Output: P, R, Q
(P: 8.20, R: 8.46, Q: 9.02)

[I] Cc1cc(C(N)=O)ccc1-c1ccc(CN[C@@H]2CCc3ccccc32)cc1 [4B-33]
[II] Cc1cc(C(N)=O)ccc1-c1ccc(CNC2(c3cccc(Cl)c3)CC2)cc1 [4B-23]
Input: Which record would sort first by descending pKi, I or II ? API: response body contains the label of the selected item.
Output: I

* * *

biological target: opioid receptor mu (Homo sapiens, UniProt P35372); construct: expressed in transfected cells; assay: GTPγ[35S] binding assay, antagonism of endorphin; format: biochemical; details: read-out: Mu functional (GTPγ[35S] binding Ki)
pKi: −log10 of the molar value. Structures can show the parent of a compound that is named as a salt.
MEASURED METRIC: pKi

Cc1cc(C(N)=O)ccc1-c1ccc(CNCc2cccc(F)c2)cc1 = 8.59
Cc1cc(C(N)=O)ccc1-c1ccc(CNCc2cccc(Cl)c2)cc1 = 9.03
Cc1cc(C(N)=O)ccc1-c1ccc(CNC2CCOc3c(C)cccc32)cc1 (centres unmarked) = 8.12
Cc1cc(C(N)=O)ccc1-c1ccc(CNCC2Cc3ccccc3O2)cc1 (centres unmarked) = 8.39
NC(=O)c1ccc(F)c(-c2cc(F)c(CNC3Cc4ccccc4C3)c(F)c2)c1 = 9.07
Cc1cc(C(N)=O)ccc1-c1ccc(CNCCC(C)C)c(Cl)c1 [E3-01, hydrochloride salt] = 8.55
Cc1cc(C(N)=O)ccc1-c1ccc(CNCCOC(C)C)cc1 = 7.99
CC(C)CCNCc1ccc(-c2ccc(C(N)=O)c(F)c2)cc1 = 6.53
NC(=O)c1ccc(-c2ccc(CNC3Cc4ccccc4C3)cn2)c(Cl)c1 = 8.96
Cc1cc(C(N)=O)ccc1-c1ccc(CNCc2ccc3c(c2)CC(C)(C)O3)cc1 = 8.24

[1] CC(C)CCNCc1ccc(-c2c(F)cc(C(N)=O)cc2F)cc1
[2] CC(C)CCNCc1ccc(-c2ccc(C(N)=O)cc2Cl)cc1
[3] Cc1cc(C(N)=O)ccc1-c1cc(F)c(CNC2Cc3ccccc3C2)c(F)c1
[4] Cc1cc(C(N)=O)ccc1-c1ccc(CNCCC2CC2)cc1
Input: Please list these compounds in decreasing order of pKi. List the labels in the requested order.
Output: 3, 4, 2, 1

[a] NC(=O)c1cc(-c2ccc(CNC3Cc4ccccc4C3)cc2)ccc1F
[b] Cc1cc(C(N)=O)ccc1-c1c(F)cc(CNC2Cc3ccccc3C2)cc1F
[c] NC(=O)c1cccc(-c2ccc(CNCCC3CCCCO3)cc2Cl)c1 (centres unmarked)
[d] NC(=O)c1cccc(-c2ccc(CNC[C@@H]3CCCO3)cc2Cl)c1
Input: Arrange these 4 compounds in increasing order of pKi. List the labels in the requested order.
Output: a, d, b, c

[P] NC(=O)c1cccc(-c2ccc(CNCC3CCCOC3)cc2Cl)c1 (centres unmarked)
[Q] Cc1cc(C(N)=O)ccc1-c1ccc(CN[C@@H]2CCCc3ccccc32)cc1
Input: Which record would sort first by descending pKi, P or Q ? API: response body contains the label of the selected item.
Output: P

* * *

target: opioid receptor kappa (Homo sapiens); construct: expressed in transfected cells; experiment: GTPγ[35S] binding assay, antagonism of dynorphin-A; assay type: biochemical; settings: read-out: Kappa functional Ki (GTPγ[35S] binding)
MEASURED METRIC: Ki (nM)

[P] Cc1cc(C(N)=O)ccc1-c1ccc(CNCCC(C)C)c(OCc2ccccc2)c1
[Q] CCc1cc(C(N)=O)ccc1-c1ccc(CNCCC(C)C)cc1
Input: Which record would sort first by descending Ki, P or Q ? API: response body contains the label of the selected item.
Output: Q
(Q: 13.9 nM, P: 5.48 nM)

* * *

biological target: opioid receptor kappa (Homo sapiens, UniProt P41145); construct: expressed in transfected cells; assay: GTPγ[35S] binding assay, antagonism of dynorphin-A; type: biochemical; conditions: average Ki; antagonism of dynorphin-A (10 nM) at kappa opioid receptor membranes; read-out: Kappa functional Ki (GTPγ[35S] binding)
Sequence (P41145 whole entry): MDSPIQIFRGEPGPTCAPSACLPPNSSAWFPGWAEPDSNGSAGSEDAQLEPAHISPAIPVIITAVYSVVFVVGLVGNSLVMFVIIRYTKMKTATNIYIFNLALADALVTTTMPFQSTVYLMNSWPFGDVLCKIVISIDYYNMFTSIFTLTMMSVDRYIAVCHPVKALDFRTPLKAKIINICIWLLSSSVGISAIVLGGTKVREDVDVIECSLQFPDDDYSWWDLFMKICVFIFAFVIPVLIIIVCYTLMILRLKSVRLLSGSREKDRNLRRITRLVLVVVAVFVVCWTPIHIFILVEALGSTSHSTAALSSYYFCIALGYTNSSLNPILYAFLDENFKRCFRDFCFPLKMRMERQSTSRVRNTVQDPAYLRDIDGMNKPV
pKi: −log10 of the molar value.
MEASURED METRIC: pKi

Record excerpt, results attached:
Cc1cc(C(N)=O)ccc1-c1cc(F)c(CNC2Cc3ccccc3C2)cc1F [4B-75] = 8.90
NC(=O)c1ccc(-c2ccc(CNC3Cc4ccccc4C3)cc2Cl)c(Cl)c1 [4B-68] = 9.12
CC(C)CCNCc1ccc(-c2cc(-c3ncn[nH]3)ccc2F)cc1 [7A-02] = 8.75
Cc1cc(C(N)=O)ccc1-c1c(C)cc(CNCC2CCCO2)cc1Cl (stereo not drawn) [4B-91] = 8.05

[I] CC1(C)OCC(CNCc2ccc(-c3ccc(C(N)=O)cc3Cl)c(Cl)c2)O1 (stereo not drawn) [4B-79]
[II] CC(C)CCNCc1ccc(-c2cccc(-c3ncn[nH]3)c2)c(Cl)c1 [7A-04]
[III] COCCNCc1ccc(-c2cccc(C(N)=O)c2)c(Cl)c1 [6A-07]
Input: Arrange these 3 compounds in increasing order of pKi. List the labels in the requested order.
Output: I, III, II
(I: 6.89, III: 7.24, II: 9.10)

[1] Cc1cc(C(N)=O)ccc1-c1cc(F)c(CNCCC2CCOCC2)c(F)c1 [4B-50]
[2] Cc1cc(CNCCC(C)C)ccc1-c1cccc(-c2ncn[nH]2)c1 [7A-05]
Input: Of 1 versus 2 , which is the one with smaller reported pKi? API: response body contains the label of the selected item.
Output: 2

* * *

target: opioid receptor kappa (Homo sapiens); construct: expressed in transfected cells; experiment: GTPγ[35S] binding assay, antagonism of dynorphin-A; format: biochemical; conditions: average Ki; antagonism of dynorphin-A (10 nM) at kappa opioid receptor membranes; read-out: Kappa functional Ki (GTPγ[35S] binding)
pKi: −log10 of the molar value.
MEASURED METRIC: pKi

CC(C)CCNCc1ccc(-c2ncc(C(N)=O)cc2Cl)cc1 = 7.81
Cc1cc(C(N)=O)cnc1-c1ccc(CNCCC(C)C)cc1 = 8.14

[P] CC(C)CCNCc1cc(F)c(-c2cccc(-c3ncn[nH]3)c2)c(F)c1
[Q] Cn1c(=O)n(C)c2cc(CNCc3ccc(-c4cccc(C(N)=O)c4)c(Cl)c3)ccc21
[R] CCOCCNCc1ccc(-c2cccc(C(N)=O)c2)c(Cl)c1
Input: Arrange these 3 compounds in increasing order of pKi. List the labels in the requested order.
Output: Q, R, P
(Q: 6.09, R: 7.38, P: 8.34)

* * *

Biological target: opioid receptor kappa (Homo sapiens, UniProt P41145)
Construct: expressed in transfected cells
Assay: GTPγ[35S] binding assay, antagonism of dynorphin-A
Assay type: biochemical
Settings: average Ki; antagonism of dynorphin-A (10 nM) stimulated GTPγ[35S] binding, kappa opioid receptor membranes; read-out: Kappa functional (GTPγ[35S] binding Ki)
Method: Membranes were prepared from cells as described (Bass et al, 1996). […] Stimulation of GTPγ[^35S] binding was then quantified using a Wallac Microbeta and Ki calculations were done using Prism™ by Graphpad.
MEASURED METRIC: Ki (nM)

CC(C)CCNCc1ccc(-c2cccc(C(N)=O)c2)cc1O [1A-06] = 101
Cc1cc(C(N)=O)ccc1-c1ccc(CNCCC(C)C)cc1 [E4-01] = 2.4
CC(C)CCNCc1cc(Cl)c(-c2cccc(C(N)=O)c2)c(Cl)c1 [1A-03] = 3.76

[a] Cc1cc(C(N)=O)ccc1-c1ccc(CNCCC(C)C)cc1F.Cl [1B-03]
[b] CC(C)CCNCc1ccc(-c2cccc(C(N)=O)c2)cn1 [1C-01]
[c] CC(C)CCNCc1ccc(-c2cccc(C(N)=O)c2)c(Cl)c1 [4A-05]
[d] Cc1cc(C(N)=O)ccc1-c1ccc(CNC2Cc3ccccc3C2)cc1.Cl [4B-04]
Input: Arrange these 4 compounds in increasing order of Ki. List the labels in the requested order.
Output: d, a, c, b
(d: 0.406 nM, a: 3.32 nM, c: 9.84 nM, b: 114 nM)
